- tested-target: Neu5Ac(a2-3)Gal(b1-3)GalNAc
- measurement-protocol: glycan array binding signal (z-score within array); higher = stronger binding
- experimental-context: glycan notation: IUPAC condensed, linker removed
This is one part of a sample in which the strongest signals are shown more often than they occur.
Each entry below lists one item and its recorded glycan array binding signal (z-score) value.
Just the number.

Look over these answered cases.
What the record says about PfulAvr4 2 (Pseudocercospora fuligena) (protein) HHHHHHDYKDDDDKAKPIKPFACPPKDFTTTKCQGPVDCLYANPLSCLGYIQCVCDDDACSTATPYAKSCPTGLAWVEKLKRCDGIKKSACPKKMYEGS : glycan array binding signal (z-score) is -0.292

What the record says about AidA (Burkholderia cenocepacia) (protein) MSRVTDVLVSFDTETILKKYPNPSKNPAAPTLIDWRYVYMVTNQDNVISGQAGGELDLKAQVGDLIRWRETSLSLGFENQVVFYKFIGNVGNDLISTPTPRVAEASIPVPNTSKPEVPTCQKVANYYWSSECLKVGRVTYHFQFQIIDRNCQSQGCFSWDPFISIHN : glycan array binding signal (z-score) is -0.739

What the record says about SJCP1084 (Schistosoma japonicum) (protein) MRIINLVIISTALLLINLLQTKSQANGEDTKNGTPDDPGLTKSTELKVEVQALLKDKKTNMRVKWNENLLDNTKPEYHNLRDEACELLLQIVRSVVPLSQDDGECKDVTFTKYVVGTKDGAVNVKLTITFKDSVAINQKPMDLKLKLENDFKNLQSESTLKATKPTFTVKVEKRLIPISKPQTTPPTTAKNDASKENVGDIGGEDSTVPTAAPATAASANEEKDEGDKDNKDSQHPNVLTSNVNDRNLIIALVALMILAIGVALTAAVKQR : glycan array binding signal (z-score) is -0.71

What the record says about FimD (Bordetella pertussis) (protein) MPARVISFCGAALAVWAGLAVQPAMAVDPPVDCGRALGLHFWSSASLISDQTPDGTLIGKPVVGRSLLSKSCKVPDDIKEDLSDNHDGEPVDIVLELGSNYKIRPQSYGHPGIVVDLPFGSTEETGIAIYIDFGSSPMQKVGERQWLYPQKGEVLFDVLTINGDNAEVRYQAIKVGPLKRPRKLVLSQFPNLFTYKWVFMRGTSQERVLAQGTIDTDVATSTIDLKTCRYTSQTVSLPIIQRSALTGVGTTLGMTDFQMPFWCYGWPKVSVYMSATKTQTGVDGVALPATGQAAGMASGVGVQLINGKTQQPVKLGLQGKIALPEAQQTESATFSLPMKAQYYQTSTSTSAGKLSVTYAVTLNYD : glycan array binding signal (z-score) is 0.041

What the record says about Ecp6 (Cladosporium fulvum), B3VBK9 (protein) MQSMILFAAALMGAAVNGFVLPRTDDPDCETKATDCGSTSNIKYTVVKGDTLTSIAKKFKSGICNIVSVNKLANPNLIELGATLIIPENCSNPDNKSCVSTPAEPTETCVPGLPGSYTIVSGDTLTNISQDFNITLDSLIAANTQIENPDAIDVGQIITVPVCPSSQCEAVGTYNIVAGDLFVDLAATYHTTIGQIKALNNNVNPSKLKVGQQIILPQDCKNVTTAVA : glycan array binding signal (z-score) is -0.099

Next up:
What the record says about HBHA-Rv (Mycobacterium tuberculosum), P0A5P6 (protein) MAENSNIDDIKAPLLAALGAADLALATVNELITNLRERAEETRTDTRSRVEESRARLTKLQEDLPEQLTELREKFTAEELRKAAEGYLEAATSRYNELVERGEAALERLRSQQSFEEVSARAEGYVDQAVELTQEALGTVASQTRAVGERAAKLVGIELPKKAAPAKKAAPAKKAAPAKKAAAKKAPAKKAAAKKVTQK : glycan array binding signal (z-score) is 1.62
